// provenance: patent US20040054194A1

# Procedure Summary: logP determination by HPLC on a reversed-phase column (C 18), EEC Directive 79/831 Annex V.A8
# Assay type: physicochemical
# Condition Info: reversed-phase HPLC column (C 18), pH 2.3, HPLC, pH 2.3; read-out: log P (pH 2.3)
Labelling field: enter class 1 if recorded chromatographic logP is less than 3. Enter class 0 if it equals or exceeds that cut-off.

Look over these answered cases.
{"Compound": "CC(=O)NC(CCC(=O)c1c(F)cccc1F)c1ccc(Br)cc1 (stereo not drawn)", "Group": "class 1"}
{"Compound": "O=C(c1c(F)cccc1F)C1CC1c1ccc(Br)cc1 (stereo not drawn)", "Group": "class 0"}
{"Compound": "Fc1cccc(F)c1C1=NC(c2ccc(Cl)cc2)CC1 (stereo not drawn)", "Group": "class 1"}
{"Compound": "CC(=O)NC(CCC(=O)c1c(F)cccc1F)c1ccc(Cl)cc1 (stereo not drawn)", "Group": "class 1"}
{"Compound": "Fc1cccc(F)c1C1=NC(c2ccc(Br)cc2)CC1 (stereo not drawn)", "Group": "class 1"}

Shift focus to the following entry.
[ask] Regarding O=C(/C=C/c1ccc(Br)cc1)c1c(F)cccc1F , kindly confirm whether its chromatographic logP is beneath 3.
[reply] class 0

====

# Procedure Summary: logP determination by HPLC on a reversed-phase column (C 18), EEC Directive 79/831 Annex V.A8
# Type: physicochemical
# Condition Info: reversed-phase HPLC column (C 18), pH 2.3, HPLC, acidic range pH 2.3; cyclopropanes of the formula (III); read-out: logP*
Quantity Kind: chromatographic logP

[ask] Quick one: chromatographic logP for O=C(c1c(F)cccc1F)C1CC1c1ccc(Br)cc1 (stereo not shown) ?
[reply] 4.22

====

# Procedure Summary: logP determination by HPLC on a reversed-phase column (C 18), EEC Directive 79/831 Annex V.A8
# Format: physicochemical
# Condition Info: reversed-phase HPLC column (C 18), pH 2.3, HPLC, acidic range pH 2.3; amides of the formula (II); read-out: logP*
Quantity Kind: chromatographic logP
Just the number.

Example entries and their recorded answers appear below.
{"Compound": "CC(=O)NC(CCC(=O)c1c(F)cccc1F)c1ccc(Br)cc1 (stereo not drawn)", "chromatographic logP": 2.67}
{"Compound": "CC(=O)NC(CCC(=O)c1c(F)cccc1F)c1ccc(Cl)cc1 (stereo not drawn)", "chromatographic logP": 2.59}

Attention now shifts to the item below.
[ask] Quick one: chromatographic logP for CC(=O)NC(CCC(=O)c1c(F)cccc1F)c1ccc(-c2ccc(OC(F)(F)F)cc2)cc1 (stereo not drawn) ?
[reply] 3.79

====

# Procedure Summary: logP determination by HPLC on a reversed-phase column (C 18), EEC Directive 79/831 Annex V.A8
# Format: physicochemical
# Condition Info: reversed-phase HPLC column (C 18), pH 2.3, HPLC, acidic range pH 2.3; chalcones of the formula (VI); read-out: logP*
Quantity Kind: chromatographic logP
Just the number.

[ask] Quick one: chromatographic logP for O=C(/C=C/c1ccc(Br)cc1)c1c(F)cccc1F ?
[reply] 3.98

====

Quantity Kind: melting point (°C)
The reply should contain only the number, in °C.

{"Compound": "O=C(/C=C/c1ccc(Br)cc1)c1c(F)cccc1F", "Quantity Kind": "melting point", "Units Of Measure": "°C", "Test Value": 71}

Attention now shifts to the item below.
[ask] Quick one: melting point for Fc1cccc(F)c1C1=NC(c2ccc(Br)cc2)CC1 (stereo not shown) ?
[reply] 48
